Ref: ChEMBL document CHEMBL2176927

So I've got a bunch of compounds here, and I need their fraction unbound values.
Test: Plasma protein binding in mouse
Assay type: ADME, cell-free
Details: read-out: PPB (converted)
Give bare numbers.

[[record]]
substance_smiles = "CCNC(=O)Nc1ccc(-c2nc3c(c(N4CCOC[C@@H]4C)n2)CN(c2cnccn2)CC3)cc1"
property = "fraction unbound"
result_value = 0.03

[[record]]
substance_smiles = "CCNC(=O)Nc1ccc(-c2nc3c(c(N4CCOC[C@@H]4C)n2)CN(c2ncccn2)CC3)cc1"
property = "fraction unbound"
result_value = 0.03

[[record]]
substance_smiles = "CCNC(=O)Nc1ccc(-c2nc3c(c(N4CCOC[C@@H]4C)n2)CCN(c2ncccn2)C3)cc1"
property = "fraction unbound"
result_value = 0.01

[[record]]
substance_smiles = "CCNC(=O)Nc1ccc(-c2nc3c(c(N4CCOC[C@@H]4C)n2)CCN(c2nc(C)ns2)C3)cc1"
property = "fraction unbound"
result_value = 0.02


# context switch: different compound, same fraction unbound
input: Using the record for CCNC(=O)Nc1ccc(-c2nc3c(c(N4CCOCC4)n2)CCN(c2ncccn2)C3)cc1 , report its fraction unbound.
output: 0.01

====

So I've got a bunch of compounds here, and I need their pIC50 values.
Experiment: Cytotoxicity against human MCF7/neo expressing HER2 after 3 days
Format: functional
Numbers only, as −log10 of the molar value.

Hi there! I need pIC50 for each item below, if you can.
1. CCNC(=O)Nc1ccc(-c2nc3c(c(N4CCOC[C@@H]4CC)n2)CCN(c2ncccn2)C3)cc1
2. CCNC(=O)Nc1ccc(-c2nc3c(c(N4CCOC[C@@H]4C)n2)CCN(c2cnccn2)C3)cc1
3. CCNC(=O)Nc1ccc(-c2nc3c(c(N4CCOC[C@@H]4C)n2)CCN(c2nc(C)ns2)C3)cc1
4. CCNC(=O)Nc1ccc(-c2nc3c(c(N4CCOC[C@@H]4C)n2)CCN(c2nnc(C)o2)C3)cc1
5. CCNC(=O)Nc1ccc(-c2nc3c(c(N4CCOC[C@@H]4C)n2)CCN(c2ncccn2)C3)cc1
6. CCNC(=O)Nc1ccc(-c2nc3c(c(N4CCOC[C@@H]4C)n2)CCN(c2cccnn2)C3)cc1

output:
1. 7.42
2. 6.96
3. 7.16
4. 6.89
5. 7.24
6. 6.54

====

Assay: Clearance in rat liver microsomes
Format: ADME, Microsome
So I've got a bunch of molecules here, and I need their CLhep predicted values.
One number for each entry, in mL/min/kg.

[[record]]
substance_smiles = "CCNC(=O)Nc1ccc(-c2nc3c(c(N4CCOC[C@@H]4C)n2)CCN(c2nc(C)ns2)C3)cc1"
result_value = 29

[[record]]
substance_smiles = "CCNC(=O)Nc1ccc(-c2nc3c(c(N4CCOCC4)n2)CCN(c2ncccn2)C3)cc1"
result_value = 31

[[record]]
substance_smiles = "CCNC(=O)Nc1ccc(-c2nc3c(c(N4CCOC[C@@H]4C)n2)CCN(c2ncccn2)C3)cc1"
result_value = 33

[[record]]
substance_smiles = "CCNC(=O)Nc1ccc(-c2nc3c(c(N4CCOC[C@@H]4C)n2)CCN(c2cccnn2)C3)cc1"
result_value = 19


Hi there! I need CLhep predicted for each item below, if you can.
1. CCNC(=O)Nc1ccc(-c2nc3c(c(N4CCOC[C@@H]4C)n2)CN(c2cnccn2)CC3)cc1
2. CCNC(=O)Nc1ccc(-c2nc3c(c(N4CCOC[C@@H]4C)n2)CN(c2ncccn2)CC3)cc1

output:
[44, 44]
